target_or_system: T1, EsCas13d, nuclease-dead (Eubacterium siraeum, UniProt B0MS50, R295A;H300A;R849A;H854A)
T1 sequence: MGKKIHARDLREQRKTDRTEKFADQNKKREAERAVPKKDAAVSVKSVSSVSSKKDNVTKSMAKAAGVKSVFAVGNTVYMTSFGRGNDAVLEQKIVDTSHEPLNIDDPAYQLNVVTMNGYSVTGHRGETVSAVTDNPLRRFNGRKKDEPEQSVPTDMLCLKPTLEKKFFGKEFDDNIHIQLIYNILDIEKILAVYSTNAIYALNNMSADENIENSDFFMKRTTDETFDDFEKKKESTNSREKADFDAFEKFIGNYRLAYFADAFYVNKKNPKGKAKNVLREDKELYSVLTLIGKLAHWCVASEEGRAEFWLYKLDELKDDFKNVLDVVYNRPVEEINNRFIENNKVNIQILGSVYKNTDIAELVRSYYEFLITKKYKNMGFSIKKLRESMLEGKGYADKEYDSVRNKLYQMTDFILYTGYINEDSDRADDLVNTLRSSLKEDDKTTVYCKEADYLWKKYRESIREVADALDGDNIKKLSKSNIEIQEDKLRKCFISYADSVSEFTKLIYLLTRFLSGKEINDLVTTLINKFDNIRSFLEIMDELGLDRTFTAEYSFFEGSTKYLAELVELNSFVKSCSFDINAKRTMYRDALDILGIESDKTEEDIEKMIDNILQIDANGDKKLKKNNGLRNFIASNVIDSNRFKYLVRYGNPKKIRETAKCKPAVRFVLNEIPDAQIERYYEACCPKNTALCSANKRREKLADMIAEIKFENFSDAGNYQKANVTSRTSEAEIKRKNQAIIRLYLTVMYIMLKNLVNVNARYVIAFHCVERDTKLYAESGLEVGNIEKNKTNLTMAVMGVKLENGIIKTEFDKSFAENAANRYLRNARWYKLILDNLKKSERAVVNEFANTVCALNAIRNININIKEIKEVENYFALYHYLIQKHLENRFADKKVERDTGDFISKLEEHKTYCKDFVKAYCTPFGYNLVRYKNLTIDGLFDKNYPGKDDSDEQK
experiment: crRNA (strand 1, pre-loaded); Mg2+; 40 mM Tris-HCl pH 7.5, 150 mM NaCl, 6 mM MgCl2, 1 mM DTT, 0.1% Tween-20, 0.2 mg/ml BSA; 25 C; 10 min per concentration, then washed
measurement_parameters: tags: His6-TwinStrep-SUMO cleaved; N-terminal SNAP kept (SNAP-Surface 488); label: 3' end held by stalled T7 RNA polymerase
reported_endpoint: Kd (nM)

binder="target 1 insU 3' of 21,insG 3' of 2 (mixed) RNA 1: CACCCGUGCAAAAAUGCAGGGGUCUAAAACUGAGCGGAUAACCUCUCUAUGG RNA 2: GGGAAUGGAUCCACAUCUACGAAUUCGUACCUAUAGAGAGGUUAUCCGCUCGACCGAGAUCGGAAGAGCACACGU" unit_text=nM measured_result=26
binder="target 1 MT 5'PFS GUC 3'PFS CGC (mixed) RNA 1: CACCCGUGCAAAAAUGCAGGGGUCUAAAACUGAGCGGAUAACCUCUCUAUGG RNA 2: GGGAAUGGAUCCACAUCUACGAAUUCGUCCCAUAGAGAGGUUAUCCGCUCACGCAGAUCGGAAGAGCACACGU" unit_text=nM measured_result=22
binder="target 2 MT 5'PFS UCA 3'PFS CUC (mixed) RNA 1: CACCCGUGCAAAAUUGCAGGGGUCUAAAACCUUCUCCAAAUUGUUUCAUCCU RNA 2: GGGAAUGGAUCCACAUCUACGAAUUCUCAAGGAUGAAACAAUUUGGAGAAGCUCAGAUCGGAAGAGCACACGU" unit_text=nM measured_result=8.7
binder="target 2 MT 5'PFS AGC 3'PFS CUA (mixed) RNA 1: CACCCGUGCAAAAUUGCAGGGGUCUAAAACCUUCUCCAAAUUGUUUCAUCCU RNA 2: GGGAAUGGAUCCACAUCUACGAAUUCAGCAGGAUGAAACAAUUUGGAGAAGCUAAGAUCGGAAGAGCACACGU" unit_text=nM measured_result=8.6
binder="target 1 insU 3' of 4,insG 3' of 3 (mixed) RNA 1: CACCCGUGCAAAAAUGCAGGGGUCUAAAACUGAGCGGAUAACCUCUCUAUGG RNA 2: GGGAAUGGAUCCACAUCUACGAAUUCGUACCAUAGAGAGGUUAUCCGCUUGCACCGAGAUCGGAAGAGCACACGU" unit_text=nM measured_result=7.77
binder="target 2 MT 5'PFS CGG 3'PFS ACG (mixed) RNA 1: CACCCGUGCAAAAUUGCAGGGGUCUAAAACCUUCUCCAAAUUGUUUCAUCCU RNA 2: GGGAAUGGAUCCACAUCUACGAAUUCCGGAGGAUGAAACAAUUUGGAGAAGACGAGAUCGGAAGAGCACACGU" unit_text=nM measured_result=4.05
binder="target 1 MT 5'PFS GGA 3'PFS CAG (mixed) RNA 1: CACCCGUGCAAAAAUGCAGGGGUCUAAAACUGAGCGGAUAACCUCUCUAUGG RNA 2: GGGAAUGGAUCCACAUCUACGAAUUCGGACCAUAGAGAGGUUAUCCGCUCACAGAGAUCGGAAGAGCACACGU" unit_text=nM measured_result=24.5
binder="target 2 MT 5'PFS GGG 3'PFS AUU (mixed) RNA 1: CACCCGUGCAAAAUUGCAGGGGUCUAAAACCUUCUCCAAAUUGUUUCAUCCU RNA 2: GGGAAUGGAUCCACAUCUACGAAUUCGGGAGGAUGAAACAAUUUGGAGAAGAUUAGAUCGGAAGAGCACACGU" unit_text=nM measured_result=9
binder="target 2 MT 5'PFS AGG 3'PFS AAA (mixed) RNA 1: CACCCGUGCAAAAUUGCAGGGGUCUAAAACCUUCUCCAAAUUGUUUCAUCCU RNA 2: GGGAAUGGAUCCACAUCUACGAAUUCAGGAGGAUGAAACAAUUUGGAGAAGAAAAGAUCGGAAGAGCACACGU" unit_text=nM measured_result=4.3
binder="target 1 C4A,A14C (mixed) RNA 1: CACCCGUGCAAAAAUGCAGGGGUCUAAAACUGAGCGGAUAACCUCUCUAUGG RNA 2: GGGAAUGGAUCCACAUCUACGAAUUCGUACCAUAGAGCGGUUAUCCGAUCACCGAGAUCGGAAGAGCACACGU" unit_text=nM measured_result=11.9
binder="target 2 MT 5'PFS ACC 3'PFS AGA (mixed) RNA 1: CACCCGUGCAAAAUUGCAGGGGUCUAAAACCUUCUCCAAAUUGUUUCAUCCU RNA 2: GGGAAUGGAUCCACAUCUACGAAUUCACCAGGAUGAAACAAUUUGGAGAAGAGAAGAUCGGAAGAGCACACGU" unit_text=nM measured_result=7.9
binder="target 1 insA 3' of 4,insA 3' of 3 (mixed) RNA 1: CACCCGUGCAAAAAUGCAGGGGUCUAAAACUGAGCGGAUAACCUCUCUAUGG RNA 2: GGGAAUGGAUCCACAUCUACGAAUUCGUACCAUAGAGAGGUUAUCCGCAUACACCGAGAUCGGAAGAGCACACGU" unit_text=nM measured_result=7.01
binder="target 1 insU 3' of 5,insA 3' of 4 (mixed) RNA 1: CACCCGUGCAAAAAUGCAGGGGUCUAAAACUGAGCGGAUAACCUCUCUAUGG RNA 2: GGGAAUGGAUCCACAUCUACGAAUUCGUACCAUAGAGAGGUUAUCCGUCAUCACCGAGAUCGGAAGAGCACACGU" unit_text=nM measured_result=16.2
